Reported values of MIC P. aeruginosa PA14 for individual entries
- Tested on: P. aeruginosa PA14
- ASSAY: microbe, parasite or virus in culture
- PARTICULARS: supplement CSV; 12.5% MH pH 7.4
No end group written: not given here.

SUBSTANCE: VDKPPYLPRPRPPRRIYNR [sr8Cterm-Onc] (VDKPPYLPRPRPPRRIYNR-NH2; also: residues 12-19 stereorandomized (1:1 L/D mixture))
MIC P. aeruginosa PA14, µg/mL: 8
//
SUBSTANCE: VDKPPYLPRPRPPRRIYNR-NH2 [L-Onc, reference compound]
MIC P. aeruginosa PA14, µg/mL: 32
//
SUBSTANCE: VDKPPYLPRPRPPRRIYNR [sr9Cterm-Onc] (VDKPPYLPRPRPPRRIYNR-NH2; also: residues 11-19 stereorandomized (1:1 L/D mixture))
MIC P. aeruginosa PA14, µg/mL: 8
//
SUBSTANCE: VDKPPYLPRPRPPRRIYNR [sr5Cterm-Onc] (VDKPPYLPRPRPPRRIYNR-NH2; also: residues 15-19 stereorandomized (1:1 L/D mixture))
MIC P. aeruginosa PA14, µg/mL: 8
//
SUBSTANCE: VDKPPYLPRPRPPRRIYNR [sr-Onc] (VDKPPYLPRPRPPRRIYNR-NH2; also: all 19 residues stereorandomized (1:1 L/D mixture))
MIC P. aeruginosa PA14, µg/mL: 32
//
SUBSTANCE: VDKPPYLPRPRPPRRIYNR [sr14Nterm-Onc] (VDKPPYLPRPRPPRRIYNR-NH2; also: residues 1-14 stereorandomized (1:1 L/D mixture))
MIC P. aeruginosa PA14, µg/mL: 64

----------
- Test system: P. aeruginosa PAO1
- ASSAY: microbe, parasite or virus in culture
- PARTICULARS: supplement CSV; full MH pH 7.4
- Description: We tested antibacterial effects against the Gram-negative bacteria Escherichia coli, Klebsiella pneumoniae, Pseudomonas aeruginosa, and Acinetobacter baumannii and the Gram-positive methicillin-resistant Staphylococcus aureus (MRSA). […]
No end group written: not given here.
MIC P. aeruginosa PAO1 values, listed per item
EXPERIMENTAL_ENDPOINT: MIC P. aeruginosa PAO1 (µg/mL)

CHAIN: VDKPPYLPRPRPPRRIYNR [sr9Cterm-Onc] (VDKPPYLPRPRPPRRIYNR-NH2; also: residues 11-19 stereorandomized (1:1 L/D mixture))
EXPERIMENTAL_ENDPOINT: MIC P. aeruginosa PAO1
BOUND_TYPE: =
NUMBER: 64
--
CHAIN: VDKPPYLPRPRPPRRIYNR [sr11Cterm-Onc] (VDKPPYLPRPRPPRRIYNR-NH2; also: residues 9-19 stereorandomized (1:1 L/D mixture))
EXPERIMENTAL_ENDPOINT: MIC P. aeruginosa PAO1
BOUND_TYPE: >
NUMBER: 64
--
CHAIN: VDKPPYLPRPRPPRRIYNR [sr6Cterm-Onc] (VDKPPYLPRPRPPRRIYNR-NH2; also: residues 14-19 stereorandomized (1:1 L/D mixture))
EXPERIMENTAL_ENDPOINT: MIC P. aeruginosa PAO1
BOUND_TYPE: =
NUMBER: 64

----------
Recorded MIC E. coli W3110, one value per entry.
- System: E. coli W3110
- ASSAY: microbe, parasite or virus in culture
- PARTICULARS: supplement CSV; 12.5% MH pH 7.4
No end group written: not given here.
EXPERIMENTAL_ENDPOINT: MIC E. coli W3110 (µg/mL)

SUBSTANCE: VDKPPYLPRPRPPRRIYNR-NH2 [L-Onc, reference compound]
ASSAY_SYSTEM: E. coli W3110
NUMBER: 2
--
SUBSTANCE: VDKPPYLPRPRPPRRIYNR [sr14Nterm-Onc] (VDKPPYLPRPRPPRRIYNR-NH2; also: residues 1-14 stereorandomized (1:1 L/D mixture))
ASSAY_SYSTEM: E. coli W3110
NUMBER: 4
--
SUBSTANCE: VDKPPYLPRPRPPRRIYNR [sr11Cterm-Onc] (VDKPPYLPRPRPPRRIYNR-NH2; also: residues 9-19 stereorandomized (1:1 L/D mixture))
ASSAY_SYSTEM: E. coli W3110
NUMBER: 4
--
SUBSTANCE: VDKPPYLPRPRPPRRIYNR [sr3N5Cterm-Onc] (VDKPPYLPRPRPPRRIYNR-NH2; also: residues 1-3 and 15-19 stereorandomized (1:1 L/D mixture))
ASSAY_SYSTEM: E. coli W3110
NUMBER: 1
--
SUBSTANCE: VDKPPYLPRPRPPRRIYNR [sr-Onc] (VDKPPYLPRPRPPRRIYNR-NH2; also: all 19 residues stereorandomized (1:1 L/D mixture))
ASSAY_SYSTEM: E. coli W3110
NUMBER: 8
--
SUBSTANCE: VDKPPYLPRPRPPRRIYNR [sr10Cterm-Onc] (VDKPPYLPRPRPPRRIYNR-NH2; also: residues 10-19 stereorandomized (1:1 L/D mixture))
ASSAY_SYSTEM: E. coli W3110
NUMBER: 4
